Test Summary: gradient 5% acetonitrile 3 min, to 50% in 2 min, to 85% in 15 min, held 3 min, 100 µL/min
Conditions Used: column: Zorbax Extend-C18 2.1 x 50 mm; eluents: water / acetonitrile, 0.1% formic acid
Measure Name: RP-LC retention time (s)
Give the value in s but do not write s after it.

Read off the recorded RP-LC retention time for Cc1ccc(-c2cn3c(n2)N(C(=O)c2nc4ncccn4n2)CCC3)cc1
611

Read off the recorded RP-LC retention time for CCOC(=O)N1CCN(C2CC(=O)N(CCc3ccc(OC)c(OC)c3)C2=O)CC1 (stereo not drawn)
659

Read off the recorded RP-LC retention time for CCCCNC(=O)Cc1nnc(-c2cccc(F)c2)o1
731

====

Test Summary: gradient 5% acetonitrile 3 min, to 50% in 2 min, to 85% in 15 min, held 3 min, 100 µL/min
Conditions Used: column: Zorbax Extend-C18 2.1 x 50 mm; eluents: water / acetonitrile, 0.1% formic acid
Assign satisfied whenever RP-LC retention time does not fall below 700 s; assign not satisfied whenever it does.

Is RP-LC retention time for CCOc1ccccc1CNC(=O)c1c(C)sc2ccn(CC)c(=O)c12 at or above 700 s?
satisfied

Is RP-LC retention time for CCc1cccc(C)c1Nc1c(-c2cccc(O)c2)nc2ncccn12 at or above 700 s?
satisfied

Is RP-LC retention time for CCN1CCN(c2nc(-c3cccc(C)c3)nnc2C)CC1 at or above 700 s?
not satisfied

Is RP-LC retention time for O=C1C(OC2CCN(S(=O)(=O)c3ccc(C(F)(F)F)cc3)CC2)CCN1CC1CC1 (centres undefined) at or above 700 s?
satisfied

Is RP-LC retention time for Cc1ccccc1NC(=O)C1CCCN(C(=O)c2nn(C)c3c2CN(C(=O)C(C)(C)C)CC3)C1 (centres undefined) at or above 700 s?
satisfied

Is RP-LC retention time for CCOc1ccc(N2C=C(C(=O)OC)S(=O)(=O)c3cc(F)ccc32)cc1 at or above 700 s?
satisfied

Is RP-LC retention time for O=C(NCc1ccccc1Br)C1CCN(c2cnc3nccnc3c2)CC1 at or above 700 s?
satisfied

Is RP-LC retention time for Cn1nc(-c2nnc(-c3ccc(F)cc3)o2)c2c1CCN(S(=O)(=O)c1ccc(F)cc1)C2 at or above 700 s?
satisfied

Is RP-LC retention time for Cc1nn(-c2ccccc2)c(C)c1S(=O)(=O)N1CCC(C(=O)Nc2ccccc2)CC1 at or above 700 s?
satisfied

Is RP-LC retention time for Cc1ccc(CNC(=O)C(C)n2nc(C)c3c(C)n(-c4ccccc4)nc3c2=O)o1 (centres undefined) at or above 700 s?
satisfied

Is RP-LC retention time for Cc1cc(C(=O)Nc2ccc(CC(=O)NCc3cccs3)cc2)c(C)o1 at or above 700 s?
satisfied

Is RP-LC retention time for Cc1ccccc1NC(=O)CN(C)S(=O)(=O)c1cc(C(=O)N2CCC(C)CC2)n(C)c1 at or above 700 s?
satisfied

Is RP-LC retention time for O=C(COc1ccc(F)cc1)N1CC(n2cnnc2C2CC2)C1 at or above 700 s?
not satisfied

Is RP-LC retention time for CSc1ncccc1C(=O)Nc1cccc(OCc2nnc(-c3ccccc3)o2)c1 at or above 700 s?
satisfied

Is RP-LC retention time for COc1cccc2cc(C(=O)NCCn3nc(-c4cccs4)ccc3=O)oc12 at or above 700 s?
not satisfied

Is RP-LC retention time for CCc1cccc(NC(=O)Cn2c(C)nc3onc(C)c3c2=O)c1 at or above 700 s?
satisfied

Is RP-LC retention time for CSc1cccc(NC(=O)N2CC(c3nc(C)no3)C3(CCOCC3)C2)c1 (centres undefined) at or above 700 s?
satisfied

Is RP-LC retention time for Cc1nn(-c2ccc(N3CCCC3)nn2)c(C)c1CCC(=O)N1CCCC1 at or above 700 s?
not satisfied

Is RP-LC retention time for O=C(NC1CCCCCC1)C1CCCN(C(=O)Cc2cccc3ccccc23)C1 (centres undefined) at or above 700 s?
satisfied

Is RP-LC retention time for O=C1[C@H]2CN(Cc3ccc(Cl)cc3)C[C@H]2C(=O)N1CCN1CCc2ccccc2C1 at or above 700 s?
satisfied

Is RP-LC retention time for OC1(c2ccccn2)CCOC2(CCN(Cc3ccc(Cl)c(F)c3)CC2)C1 (centres undefined) at or above 700 s?
not satisfied

Is RP-LC retention time for COc1ccc(OC)c(N2C=C(C#N)S(=O)(=O)c3ccc(C)cc32)c1 at or above 700 s?
satisfied

Is RP-LC retention time for COc1ccc(C(C)NC(=O)c2ccc3ncnc(N4CCCC4)c3c2)cc1 (centres undefined) at or above 700 s?
not satisfied

Is RP-LC retention time for CCc1ccccc1S(=O)(=O)NCc1c(-c2ccccc2)nc2sc(C)nn12 at or above 700 s?
satisfied

Entry source: the METLIN SMRT retention time set (Domingo-Almenara et al. 2019)
